Measured values drawn from the Human Domainome abundance scans (Beltran et al. 2025) for this set.

Recorded abundance fitness for the following variants
B1: Cyclin-F, residues 28 to 80; numbered along this chain, P41002 (parent)
chain: RNLTILSLPEDVLFHILKWLSVEDILAVRAVHSQLKDLVDNHASVWACASFQE

- Variants of: B1
- ASSAY NAME: abundance fitness (aPCA) (normalised: wild type 0, dead -1); higher = more abundant; growth selection in yeast, the domain comes from the species named
- STATED CONDITIONS: Homo sapiens
Simply state the number, no unit and no words.

Q52P :: -0.377
D11H :: -0.384
H42L :: -0.546
V31R :: -0.754
S44N :: 0.11
D37F :: -0.222
R1S :: 0.016
A49F :: -0.663
K36G :: -0.891

Q. Given the variant E23D , write its reported abundance fitness.
A. 0.057
